target: human PDE10A enzyme (Homo sapiens); construct: Human PDE10A full-length gene was transfected into Sf9 or COS-7 cells; His-tag; made in house; host or cells: Sf9 or COS-7 cells; assay: PDE10A Enzyme Activity Inhibition Test (SPA, [3H]cGMP substrate); assay type: biochemical; conditions: at 100 nM compound; read-out: PDE10A enzyme activity inhibition rate
Quick reference for inhibition at 0.1 µM among some compounds

O=c1ccn(C2CCCN(c3ccccc3)C2)nc1-c1ccnn1-c1ccccc1 (centres unmarked) [Example 46]; < 50%

Enquiry: Return reported inhibition at 0.1 µM. Input compound: COc1c(-c2ccnn2-c2ccccc2)oc(-c2ccccc2)cc1=O [Example 12]
Return: < 50%

Enquiry: Return reported inhibition at 0.1 µM. Input compound: COc1cn(C2CN(c3ncccc3C(F)(F)F)C2)nc(-c2ccnn2-c2ccccc2)c1=O [Example 98]
Return: ≥ 50%

Enquiry: Return reported inhibition at 0.1 µM. Input compound: O=c1cc2n(nc1-c1ccnn1-c1ccccc1)-c1ccccc1OC2 [Example 11]
Return: ≥ 50%

Enquiry: Return reported inhibition at 0.1 µM. Input compound: O=C(c1ccccc1)N1CCC(n2ccc(=O)c(-c3ccnn3-c3ccccc3)n2)CC1 [Example 49]
Return: < 50%

Enquiry: Return reported inhibition at 0.1 µM. Input compound: O=c1ccc(-c2ccccc2F)cn1-c1ccnn1-c1ccccc1 [Example 20]
Return: < 50%

Enquiry: Return reported inhibition at 0.1 µM. Input compound: O=c1ccn(C2CCN(c3ccccc3C(F)(F)F)CC2)nc1-c1ccnn1-c1ccccc1 [Example 64]
Return: < 50%

Enquiry: Return reported inhibition at 0.1 µM. Input compound: COc1cn(-c2cccc(C(F)(F)F)c2)nc(C2=NC(C)(C)C(=O)N2c2ccccc2)c1=O [Example 142]
Return: < 50%

----------
target: human PDE10A enzyme (Homo sapiens, UniProt Q9Y233); construct: Human PDE10A full-length gene was transfected into Sf9 or COS-7 cells; His-tag; made in house; host or cells: Sf9 or COS-7 cells; test: PDE10A Enzyme Activity Inhibition Test (SPA, [3H]cGMP substrate); assay type: biochemical; conditions: at 100 nM compound; read-out: PDE10A enzyme activity inhibition rate
Sequence (Q9Y233 267-1055): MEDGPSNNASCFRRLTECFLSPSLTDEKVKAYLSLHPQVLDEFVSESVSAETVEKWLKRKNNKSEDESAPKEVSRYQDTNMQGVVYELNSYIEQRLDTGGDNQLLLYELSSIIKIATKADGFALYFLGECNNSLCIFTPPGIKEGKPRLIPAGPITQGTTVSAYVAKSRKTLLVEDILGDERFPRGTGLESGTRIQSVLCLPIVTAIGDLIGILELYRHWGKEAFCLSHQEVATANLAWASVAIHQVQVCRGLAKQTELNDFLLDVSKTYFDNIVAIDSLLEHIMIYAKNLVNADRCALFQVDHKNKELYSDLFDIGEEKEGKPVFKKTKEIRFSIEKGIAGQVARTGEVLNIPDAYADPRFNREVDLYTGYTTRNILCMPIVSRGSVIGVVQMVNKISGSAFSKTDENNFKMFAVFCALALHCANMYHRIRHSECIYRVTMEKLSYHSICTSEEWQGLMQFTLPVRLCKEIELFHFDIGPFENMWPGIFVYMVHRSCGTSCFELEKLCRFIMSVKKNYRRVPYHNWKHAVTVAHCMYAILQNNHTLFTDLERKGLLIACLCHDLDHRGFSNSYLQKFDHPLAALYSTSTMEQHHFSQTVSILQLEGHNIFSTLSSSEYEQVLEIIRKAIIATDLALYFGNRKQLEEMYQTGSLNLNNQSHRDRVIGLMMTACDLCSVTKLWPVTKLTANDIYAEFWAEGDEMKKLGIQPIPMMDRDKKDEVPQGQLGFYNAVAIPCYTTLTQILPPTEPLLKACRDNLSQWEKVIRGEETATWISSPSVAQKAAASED
Recorded Endpoint: inhibition at 0.1 µM

Record excerpt, results attached:
COc1cn(C2CCN(c3ncccc3C#N)CC2)nc(-c2ccnn2-c2ccccc2)c1=O; ≥ 50%
O=c1c(-c2ccnn2-c2ccccc2)nn(-c2cccc(C(F)(F)F)c2)c2c1OCC2; ≥ 50%
COc1cn(S(=O)(=O)c2ccccc2)nc(-c2ccnn2-c2ccccc2)c1=O; < 50%

Okay, next one:
Enquiry: Quote human PDE10A enzyme (Homo sapiens, UniProt Q9Y233) inhibition at 0.1 µM for entry O=c1[nH]cc(-c2ccccc2)cc1-c1ccnn1-c1ccccc1 .
Return: ≥ 50%
